# measurement_target: T1, recombinant MBP-EDIII of DENV3 (Dengue virus 3, strain …, UniProt P27915, strain)
# T1 construct: also called DENV3 EDIII; envelope protein domain III of DENV3; not shown: MBP, N-terminal, kept
# method: SPR
# run_parameters: both partners purified
recorded_endpoint: pKd
pKd is a log-scale quantity: -log10 of the concentration expressed in molar.

Dear colleague, I am looking for the recorded pKd of the following binder: 1A1D-2 Fab WT (Fab, V domains shown, also called 1A1D-2 WT) VH: EVQLQQSGAELVKPGASVKLSCTASGFNIKDTYMHWVKQRPEQGLEWIGRIDPANGYSKYDPKFQGKATITADTSSNAAYLQLSSLTSEDTAVYFCARDYEGFAYWGQGTLVTVSS VL: DIVLTQSPASLAVSLGQRATISCRASESVVRYGNSFMHWYQQKPGQPPKLLIYRASSLESGIPTRFSGSGSRTDFTLTINPVEADDVATYYCQQTNVDPWAFGGGTKLEIK
7.04
